Target: HEK293 Galpha15/GCaMP6s without NPYLR7, calcium fluorescence
Assay: nonspecific activation in parental Galpha15/GCaMP6s cells – cell-based, HEK293 lacking NPYLR7, counter-screen for mosquito NPYLR7 agonist project, dose response (AID 1259426);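 also: potency for a rise in fluorescence over baseline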
The source made the active and inactive calls.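 The calls were made as follows: active = EC50 under a set limit in control cells lacking the mosquito receptor, marking a fluorescence artifact; inactive = the rest.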
Reply using exactly one outcome from active, inactive

[in] Hi, sorry to bother you, what did the test record for CCNc1ccc(OC)nc1 ?
[out] inactive

[in] Dear colleague, could you share the recorded outcome for N#CC(C#N)=C1C=C2C=C(N3CCCCC3)CCC2CC1 (stereo unspecified) when you have a moment?
[out] active

[in] What outcome does the record of this test show for O=c1cc(C(F)(F)F)c2ccc(O)cc2o1 ?
[out] active

[in] Name the outcome recorded for CCN=c1cc2oc3cc(NCC)c(C)cc3c(-c3ccccc3C(=O)OCC)c-2cc1C in the assay.
[out] active

[in] Please share the test call associated with CCN(CC)c1ccc(/C=C2\SC(=S)N(CCS(=O)(=O)O)C2=O)cc1 .
[out] active

[in] GET /call?item= CC1(C)OC2OC(C(O)c3cc(O)c4c(c3O)C(=O)c3ccccc3C4=O)C(C)(O)C2O1 (stereo unspecified) returns the recorded outcome of this test.
[out] active
